Each entry below lists one item and its recorded Signal/background value.
target: T1, CNDP2 peptide complexed with HLA-A*02:01 on T2 cells (human); assay: flow cytometry, peptide-loaded T2 cells;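 further: binding of single-chain Fv antibody constructs, raised in XenoMouse, to peptide-pulsed T2 cells measured by flow cytometry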
T1 construct: whole, on cells; also called CNPD2
Lab note: record just the number, no unit beside it.

18181-B8 (scFv, scFv in bacterial lysate, detected with anti-Flag M2) scFv: EVQLLESGPGLVKPSQTLSLTCTVSGGSISSGGYYWSWIRQHPGKGLEWIGYISHSGSTYYNPSLKSRVTISVDTSKNQFSLNLTSVTAADTAVYYCAREKMWFGVLNYYYGMDVWGQGTTVTVSSGGGGSGGGGSGGGGSELVMTQTPLSLPVTPGEPASISCRSSQSLLHRNGYNYLDWYLQKPGQSPQLLIYLGSNRASGVPDRFIGSGSGTDFTLEISRVEAEDVGVYYCMQALQTPSFGQGTKVEIK; 1
18182-B5 (scFv, scFv in bacterial lysate, detected with anti-Flag M2) scFv: EVQLLESGGGLVQPGGSLRLSCAASGFTFSSHAMSWVRQAPGKGLEWVSAISGSGGGTYYADSVKGRFTISRDNSKNTLYLQMNSLRAEDTAVYYCATGKGVHLGFDYWGQGTLVTVSSGGGGSGGGGSGGGGSELVLTQPPSVSVAPGQTARITCGGNNIGSKSVHWYQQKPGQAPVLVVYDDNDRPSGIPERFSGSNFGNTATLIISRVEAGDEADYYCQVWDSSSDHVVFGGGTKLTVL; 1

Turning to the following binder.
Exam item: Report Signal/background, nothing else, for this binder: 18089-B2 (scFv, scFv in bacterial lysate, detected with anti-Flag M2) scFv: EVQLLESGGGLVQPGGSLRLSCAASGFTFSSYAMSWVRQAPGRGLEWVSTISISGGSTNYADSVKGRFTISRDNSKNTLYLQMNSLRAEDTAVYYCAKDGGSGWFPKLLHYGLDVWGQGTTVTVSSGGGGSGGGGSGGGGSELQMTQSPSSLSASVGDRVTITCQASQDISNYLNWYQQKPGKAPKLLIYAASSLQSGVPSRFSGSGSGTDFTLTISSLQPEDFATYYCQQSYSIPLTFGGGTKVEIK
Marked response: 1
